Provenance of the data: patent US20100172907A1

target: T1, human Aβ (1-40) peptide (human); assay: SPR, immobilized fibers;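 further: biacore SPR using in vitro grown Aβ1-40 or Aβ1-42 fibrils immobilized on the chip with Fab analytes, KD from koff/kon fits or equilibrium isotherms based on total Fab concentration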
T1 construct: also called Aβ1-40 fibers
observable: Kd

| binder | Kd |
| --- | --- |
| MS-Roche #7.2.H1 Fab (Fab, V domains shown) VH: QVQLVESGGGLVQPGGSLRLSCAASGFTFSSYAMSWVRQAPGKGLEWVSAINANGLKKYYADSVKGRFTISRDNSKNTLYLQMNSLRAEDTAVYYCARGKGNTHKPYGYVRYFDVWGQGTLVTVSS VL: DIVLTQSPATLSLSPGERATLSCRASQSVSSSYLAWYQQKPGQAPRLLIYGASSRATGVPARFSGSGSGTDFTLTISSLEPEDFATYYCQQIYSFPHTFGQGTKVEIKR | 9.3 nM |

Recorded result, MS-Roche #7.2.H3 Fab (Fab, V domains shown) VH: QVQLVESGGGLVQPGGSLRLSCAASGFTFSSYAMSWVRQAPGKGLEWVSAINANGYKTYYADSVKGRFTISRDNSKNTLYLQMNSLRAEDTAVYYCARGKGNTHKPYGYVRYFDVWGQGTLVTVSS VL: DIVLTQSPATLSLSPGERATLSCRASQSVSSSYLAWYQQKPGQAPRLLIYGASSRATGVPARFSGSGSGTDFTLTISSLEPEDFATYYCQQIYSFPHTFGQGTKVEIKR , Kd: 45.4 nM

Sample MS-Roche #7.11.H2 Fab (Fab, V domains shown) VH: QVQLVESGGGLVQPGGSLRLSCAASGFTFSSYAMSWVRQAPGKGLEWVSAINANGYKKYYADSVKGRFTISRDNSKNTLYLQMNSLRAEDTAVYYCARGKGNTHKPYGYVRYFDVWGQGTLVTVSS VL: DIVLTQSPATLSLSPGERATLSCRASQSVSSSYLAWYQQKPGQAPRLLIYGASSRATGVPARFSGSGSGTDFTLTISSLEPEDFATYYCQQVYSPPHTFGQGTKVEIKR ; Kd observed: 0.3 nM

Please fill in: Kd reported for MS-Roche #7.2.H6 Fab (Fab, V domains shown) VH: QVQLVESGGGLVQPGGSLRLSCAASGFTFSSYAMSWVRQAPGKGLEWVSAINARGNRTYYADSVKGRFTISRDNSKNTLYLQMNSLRAEDTAVYYCARGKGNTHKPYGYVRYFDVWGQGTLVTVSS VL: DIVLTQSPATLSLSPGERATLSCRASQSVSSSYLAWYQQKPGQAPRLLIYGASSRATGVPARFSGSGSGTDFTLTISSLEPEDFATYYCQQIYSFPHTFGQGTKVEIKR = 1 nM

The recorded Kd for MS-Roche #7.12.L2 Fab (Fab, V domains shown) VH: QVQLVESGGGLVQPGGSLRLSCAASGFTFSSYGMSWVRQAPGKGLEWVSNISGSGSSTYYADSVKGRFTISRDNSKNTLYLQMNSLRAEDTAVYYCARGKGNTHKPYGYVRYFDVWGQGTLVTVSS VL: DIVLTQSPATLSLSPGERATLSCRASQRFFYKYLAWYQQKPGQAPRLLISGSSNRATGVPARFSGSGSGTDFTLTISSLEPEDFAVYYCLQLYNIPNTFGQGTKVEIKR is 4 nM
